FYI, the data here is from patent US12331110B2.

# TARGET_OF_ASSAY: T1, recombinant endotrophin protein (Homo sapiens, UniProt P12111)
# T1 construct: the latter consisting of 77 amino acids at the carboxy-terminal of the COL6α3 chain; CD33 signal peptide (N, cleaved yes); His-tag with EK-cleavage site (N, cleaved yes); purchased Sino Biological, Beijing, China; host or cells: HEK293
# ASSAY_PROTOCOL: Affinity measurement with BLI (Octet RED96)
# TEST_SETTINGS: Octet (96-Red), 1:1 binding model
# Protocol: FIGS. 12A-B. Kinetic sensorgrams for ETP-mAb4 (FIG. 12A) and each of the humanized antibodies (FIG. 12B). […] For antibody affinity measurement, antibody (30 μg/mL) was loaded onto the protein A biosensors for 4 min. Following a short baseline in kinetics buffer, the loaded biosensors were exposed to a series of recombinant endotrophin protein at 0.1-200 nM and background subtraction was used to correct for sensor drifting. All experiments were performed with shaking at 1,000 rpm. […]
MEASUREMENT_LABEL: kon

molecule="ETP-mAb4.5: humanized IgG1 version of ETPmAb4; VH SEQ ID NO: 162, VL SEQ ID NO: 158 (antibody, V domains shown, human IgG1 constant regions) VH: EVQLLESGGGLVQPGGSLRLSCAASGFTFSSGYYICWVRQAPGKGLEWIACIYGGNSNPYYANWVNGRFTISRDNSKNTLYLQMNSLRAEDTAVYYCARKDINIGGAYELWGQGTLVTVSS VL: DIQMTQSPSSLSASVGDRVTITCQASQSISSSYLSWYQQKPGKAPKLLIYKASTLASGVPSRFSGSGSGTDFTLTISSLQPEDFATYYCQYSDWANSYGNAFGGGTKVEIK" measurement_label=kon result="1.16 E+05 1/Ms"

Switching to the query record.
### Prompt Specify reported kon for the molecule shown: ETP-mAb4.1: humanized IgG1 version of ETPmAb4; VH SEQ ID NO: 157, VL SEQ ID NO: 158 (antibody, V domains shown, human IgG1 constant regions) VH: EVQLLESGGGLVQPGGSLRLSCAASGFSFSSGYYICWVRQAPGKGLEWIACIYGGNNNPYYANWVNGRFTISRDNSKNTLYLQMNSLRAEDTAVYYCARKDINIGGAYELWGQGTLVTVSS VL: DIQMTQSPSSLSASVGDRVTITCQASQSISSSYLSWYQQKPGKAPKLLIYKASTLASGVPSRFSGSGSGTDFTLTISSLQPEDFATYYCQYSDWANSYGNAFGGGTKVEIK
### Response 1.16 E+05 1/Ms
